Tested on: CP191
method-summary: qHTS profiling for inhibitors of Plasmodium falciparum proliferation (AID 504749); note: nearly all actives have a fitted effect of over 60% in size; note: potency is the fitted concentration of half-maximal effect
measurement-parameters: P. falciparum in erythrocytes, SYBR Green DNA, 72 h; series mostly up to 28.7 µM
Inconclusive results are not listed. The source made the active and inactive calls. Calls come from the whole dose curve; as a rule, active = well fitted inhibition curve with a large enough effect; inconclusive = small, poorly fitted or top-dose-only effect; inactive = flat fitted curve, though single readings scatter.

{"columns": ["compound", "Potency"],
 "data": [
  ["CNC(=O)Oc1ccc2c(c1)[C@]1(C)CCN(C)[C@@H]1N2C", "2240 nM (active)"],
  ["CN1CCC[C@@H]1Cc1c[nH]c2ccc(CCS(=O)(=O)c3ccccc3)cc12", "5010 nM (active)"],
  ["C[C@](N)(Cc1ccc(O)cc1)C(=O)O", "inactive"],
  ["Cc1cccc(C)c1NC(=O)CN(CC(=O)O)CC(=O)O", "inactive"],
  ["CCCCN(CCCC)CC(O)c1cc(Cl)cc2c1-c1ccc(Cl)cc1/C2=C/c1ccc(Cl)cc1 (stereo not drawn)", "28.2 nM (active)"],
  ["CC1(C)[C@@H]2CC[C@@]1(C)C(=O)C2", "inactive"],
  ["C=Cc1c(C)c2cc3[nH]c(cc4nc(cc5nc(cc1[nH]2)C(C)=C5CCC(=O)O)C(CCC(=O)O)=C4C)c(C)c3C=C", "inactive"],
  ["Oc1cn2c(n1)Nc1ccc(Cl)c(Cl)c1C2", "inactive"],
  ["Nc1ncnc2c1ncn2[C@@H]1O[C@H](CO)[C@@H](O)[C@H]1O", "inactive"],
  ["O=C(O)CN1C(=O)c2cccc3cccc(c23)C1=O", "inactive"],
  ["CC1=C(CC(=O)O)c2cc(F)ccc2/C1=C\\c1ccc(S(C)=O)cc1 (stereo not drawn)", "inactive"],
  ["CCCCOC(=O)c1ccc(O)cc1", "inactive"],
  ["N[C@@H](CSCCCO)C(=O)O", "inactive"]
]}

----------
method-summary: Cellular Toxicity (caspase-3) MRC-5 (AID 659);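 note: cells exposed to compound for 16 h at 37 °C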
measurement-parameters: MRC-5 cells, luminescence; caspase-3 activation; series mostly up to 91.7 µM
Active and inactive are the calls of the source. The call rests on the fitted dose curve; in most records, active means well fitted curve in the direction sought with a large enough effect; inconclusive means small, poorly fitted or top-dose-only effect, or another doubt; inactive means no such curve, though single readings can be large or run the other way.
Classes used: active, inactive

{"columns": ["item-smiles", "label"],
 "data": [
  ["O=C1O[C@H]([C@@H](O)CO)C(O)=C1O", "inactive"],
  ["CCCCCCCCCCCCOS(=O)(=O)O", "inactive"],
  ["Oc1cccc(O)c1", "inactive"],
  ["Cc1cc(CC(=O)O)n(C)c1C(=O)c1ccc(Cl)cc1", "inactive"],
  ["CCCCOC(=O)c1ccc(O)cc1", "inactive"],
  ["[Cl][In]([Cl])[Cl]", "inactive"],
  ["NCCNCCNCCN", "inactive"],
  ["CC12CCC(CC1)C(C)(C)O2", "inactive"],
  ["CN(C)CCC=C1c2ccccc2CCc2ccccc21", "inactive"],
  ["Nc1ccc(S(=O)(=O)Nc2nccs2)cc1", "inactive"],
  ["Cc1c(O)cccc1C(=O)N[C@@H](CSc1ccccc1)[C@H](O)CN1C[C@H]2CCCC[C@H]2C[C@H]1C(=O)NC(C)(C)C", "active"],
  ["NC(=O)N/N=C/c1ccc([N+](=O)[O-])o1", "inactive"]
]}

----------
method-summary: MultiTox-Fluor Cytotoxicity Assay - LYMP1-003 - Dead Cells (AID 961);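 note: cells exposed to compound for 16 h at 37 °C; nearly all actives have a fitted effect of over 70% in size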; note: potency is the fitted concentration of half-maximal effect
measurement-parameters: LYMP1-003 lymphoblastoid cells, dead-cell protease fluorescence; series mostly up to 92.2 µM
The source made the active and inactive calls. The call rests on the fitted dose curve; in most records, active means well fitted cell-killing curve with a large enough effect; inconclusive means small, poorly fitted or top-dose-only effect, or effect the other way; inactive means flat fitted curve, though single readings scatter.

{"columns": ["item-smiles", "Potency"],
 "data": [
  ["CCCCOC(=O)c1ccc(O)cc1", "inactive"],
  ["NCCNCCNCCN", "inactive"],
  ["Cc1cc2nc3c(=O)[nH]c(=O)nc-3n(C[C@H](O)[C@H](O)[C@H](O)CO)c2cc1C", "39.8 µM (active)"],
  ["[Cl][In]([Cl])[Cl]", "inactive"],
  ["CC1(C)[C@@H]2CC[C@@]1(C)C(=O)C2", "inactive"],
  ["Cc1c(O)cccc1C(=O)N[C@@H](CSc1ccccc1)[C@H](O)CN1C[C@H]2CCCC[C@H]2C[C@H]1C(=O)NC(C)(C)C", "50.1 µM (active)"],
  ["C[C@]12C[C@H](O)[C@H]3[C@@H](CCC4=CC(=O)CC[C@@]43C)[C@@H]1CC[C@@H]2C(=O)CO", "inactive"],
  ["O=C1c2c(O)cccc2Cc2cccc(O)c21", "inactive"],
  ["NCCNCCNCCNCCN", "inactive"],
  ["Cc1cc(CC(=O)O)n(C)c1C(=O)c1ccc(Cl)cc1", "inactive"],
  ["NC(=O)c1ncn([C@@H]2O[C@H](CO)[C@@H](O)[C@H]2O)n1", "inactive"],
  ["NC(=O)N/N=C/c1ccc([N+](=O)[O-])o1", "inactive"]
]}

The measured values listed here are drawn from PubChem BioAssay (NCATS).
